# reported Binding [relative units] (relative units); entries follow
target: mouse CD98hc ectodomain (recombinant) (mouse) (UniProt P10852); assay: ELISA, VNAR-hFc in Expi293 medium on coated ectodomain
Sequence (P10852 100-526): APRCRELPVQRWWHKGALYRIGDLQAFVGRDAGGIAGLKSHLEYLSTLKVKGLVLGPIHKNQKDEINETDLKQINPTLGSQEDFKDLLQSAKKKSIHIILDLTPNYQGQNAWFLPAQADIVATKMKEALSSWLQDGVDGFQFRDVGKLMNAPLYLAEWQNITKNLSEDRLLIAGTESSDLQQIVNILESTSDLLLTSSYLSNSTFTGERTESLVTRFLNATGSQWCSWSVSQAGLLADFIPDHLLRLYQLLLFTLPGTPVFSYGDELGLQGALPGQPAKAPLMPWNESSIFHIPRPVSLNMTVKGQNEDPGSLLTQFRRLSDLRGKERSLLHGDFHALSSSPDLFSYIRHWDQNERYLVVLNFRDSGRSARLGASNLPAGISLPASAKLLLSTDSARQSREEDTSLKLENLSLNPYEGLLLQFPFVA
Please give only the number in your answer, with no unit.

Record excerpt, results attached:
# binder, reported
data = [
    ("F12 VNAR-hFc fusion (Fc fusion, Bivalent VNAR-Fc, VNAR N-terminal to human IgG1 Fc; Expi293; also called F12-hFc; clone F12; not shown: human IgG1 Fc (hinge, CH2, CH3) of vector pFUSE-hIgG1e3-Fc2) ARVDQTPQTITKEEGESLTINCVLRVHGRALASTSWYRKKSGSTREETISKGGRYVETVNSGSKSFSLRINDLTVEDSGTYRCNVYGLSFGDIEGVKKIDVYGDGTAVTVNA", 0.563),
    ("E12 VNAR-hFc fusion (Fc fusion, Bivalent VNAR-Fc, VNAR N-terminal to human IgG1 Fc; Expi293; not shown: human IgG1 Fc (hinge, CH2, CH3) of vector pFUSE-hIgG1e3-Fc2) ARVDQTPQTITKEEGESLTINCVLRTQDPALASTSWYRKKSGSTREETISKGGRYVETVNSGSKSFSLRINDLTVEDSGTYRCNVYFLLAPTKTKLQGIDVYGDGTAVTVNA", 0.078),
    ("C6 VNAR-hFc fusion (Fc fusion, Bivalent VNAR-Fc, VNAR N-terminal to human IgG1 Fc; Expi293; not shown: human IgG1 Fc (hinge, CH2, CH3) of vector pFUSE-hIgG1e3-Fc2) ARVDQTPQTITKETGESLTINCVLRDSNCALSSTYWYRKKSGSTNEALISKGGRYVETVNSGSKSFSLRINDLTVEDSGTYRCNVVYDLRDDCFFRDVYGGGTAVTVNA", 0.042),
    ("H12 VNAR-hFc fusion (Fc fusion, Bivalent VNAR-Fc, VNAR N-terminal to human IgG1 Fc; Expi293; not shown: human IgG1 Fc (hinge, CH2, CH3) of vector pFUSE-hIgG1e3-Fc2) ARVDQTPQTITKEEGESLTINCVLRVHGCALASTSWYRKKSGSTREETISKGGRYVETVNSGSKSFSLRINDLTVEDSGTYRCNVYGLSFVDIEGVKKIDVYGDGTAVTVNA", 0.045),
    ("G3 VNAR-hFc fusion (Fc fusion, Bivalent VNAR-Fc, VNAR N-terminal to human IgG1 Fc; Expi293; not shown: human IgG1 Fc (hinge, CH2, CH3) of vector pFUSE-hIgG1e3-Fc2) ARVDQTPQTITKETGESLTINCVLRDNNCALSTTYWYRKKSGSTNEENISKGGRYVETVNSGSKSFSLRINDLTVEDSGTYRCKVHFFPSFCNSTSIRSVDVYGGGTVVTVNA", 0.041),
]

Q. Entry B12 VNAR-hFc fusion (Fc fusion, Bivalent VNAR-Fc, VNAR N-terminal to human IgG1 Fc; Expi293; not shown: human IgG1 Fc (hinge, CH2, CH3) of vector pFUSE-hIgG1e3-Fc2) ARVDQTPRSVTKETGESLTINCVLRDASYALGSTCWYRKKSGSTNEESISKGGRYVETVNSGSKSFSLRINDLTVEDGGTYRCGVARGWRTLNYLCDVRTGEWSCVWRAAACGDGTAVTVNA has what Binding [relative units] (relative units)?
A. 0.084

Q. Ok, now A8 VNAR-hFc fusion (Fc fusion, Bivalent VNAR-Fc, VNAR N-terminal to human IgG1 Fc; Expi293; not shown: human IgG1 Fc (hinge, CH2, CH3) of vector pFUSE-hIgG1e3-Fc2) ARVDQTPQTITKEEGESLTINCVLRRNFQLASTSWYRKKSGSTREETISKGGRYVETVNSGSKSFSLRINDLTVEDSGTYRCNVYGFVEFAKNIVEFIDVYGDGTAVTVNA
A. 0.135

Q. Lookup E12A VNAR-hFc fusion (Fc fusion, Bivalent VNAR-Fc, VNAR N-terminal to human IgG1 Fc; Expi293; not shown: human IgG1 Fc (hinge, CH2, CH3) of vector pFUSE-hIgG1e3-Fc2) ARVDQTPQTIAREEGESVTINCVVRDSNRALASTSWCSEKYVSTREESISKGGRYVETVNSGSKSFSLRINDLTVEDSGTYRCNVYFFPSFEVDVLQTNDVYGDGTAVTVNA
A. 0.065

Taken from patent US20220177597A1.
